Assay: chemical genetic growth profiling, strain panel (AID 1159580);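 note: tested at 20 µM; growth read once vehicle control cultures reached saturation at 30 °C; 1 = growth at the plate median or of vehicle wells; lower values mean less growth of the strain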
Conditions: S. cerevisiae deletion strains, growth OD, locus YDR388W, stronger effect = lower value
Hit rate of the full screen: of about 5,500 compounds, about 2,000 (36%) were called active. Inconclusive results (about 18%) are left out. The list shows a part of the results.
In this section we review reported normalized growth values for a set of molecules.
Reply briefly: the number, and no unit.

COc1ccccc1-c1cc(=O)c2cccc(OC)c2o1	0.97
C[C@H](COc1ccccc1)N[C@H](C)[C@H](O)c1ccc(O)cc1	0.997
CCCSP(=O)(OCC)SCCC	0.995
CC12CCC(CC1)C(C)(C)O2	1.02
CC1=C(/C=C/C(C)=C/C=C/C(C)=C/C=C/C=C(C)/C=C/C=C(C)/C=C/C2=C(C)CCCC2(C)C)C(C)(C)CCC1	1.01
COc1ccccc1-c1cc(=O)c2c(OC)cccc2o1	0.985
CC[C@@H]1[C@@H](O)N2C3C[C@H]1C1C(O)[C@]4(C[C@@H]12)c1ccccc1N(C)[C@@H]34 (stereo not given in full)	0.978
O=C(/C=C/c1ccc(O)c(O)c1)O[C@@H]1C[C@](O)(C(=O)O)C[C@@H](O)[C@H]1O	1.01

Tell us which normalized growth value is on record for COc1cc(/C=C/C(=O)O)ccc1O
0.979

Tell us which normalized growth value is on record for CCC(CCC(C)C1CCC2C3CC=C4C[C@@H](OC(C)=O)CC[C@]4(C)C3CC[C@]12C)C(C)C (stereo not given in full)
0.963

---

In this section we review reported normalized growth values for a set of compounds.
Test: chemical genetic growth profiling, strain panel (AID 1159580)
Settings: S. cerevisiae deletion strains, growth OD, locus YIL147C, strain SLN1, stronger effect = lower value
Screen size: about 5,500 compounds; about 2,000 (36%) were called active. Not shown: some 18% with an inconclusive outcome. This is one part of the list.
Reply briefly: the number, and no unit.

These solved cases illustrate the format of a correct answer.
COc1cc(C(=O)Oc2c(Cl)cc(Cl)cc2C=Nc2cccc(C(F)(F)F)c2)cc(OC)c1OC	0.972
Cc1onc(-c2ccccc2Cl)c1-c1nc2ccccc2c(=O)o1	0.969
COc1ccccc1NC(=O)Nc1nn(C)c2cccc(OC)c12	0.935
CSc1c(C#N)c(-c2ccc(Cl)cc2)nn1C(=O)c1ccccc1Cl	0.949
COc1cc(C(=O)Oc2c(Cl)cc(Cl)cc2C=Nc2ccc([N+](=O)[O-])cc2C#N)cc(OC)c1OC	0.979

Please examine the following record next.
Tell us which normalized growth value is on record for Clc1ccc(-c2noc(CSC3=NCCN3)n2)cc1
0.969

---

Assay: chemical genetic growth profiling, strain panel (AID 1159580);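 note: tested at 20 µM; growth read once vehicle control cultures reached saturation at 30 °C; 1 = growth at the plate median or of vehicle wells; lower values mean less growth of the strain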
Conditions: S. cerevisiae deletion strains, growth OD, locus YBR279W, strain paf1, stronger effect = lower value
Out of some 5,500 compounds screened, about 2,000 (36%) were called active. Not shown: some 18% with an inconclusive outcome. This is one part of the list.
In this section we review reported normalized growth values for a set of compounds.
Reply briefly: the number, and no unit.

CC(=O)O[C@H]1CC[C@@]2(C)C(=CCC3C2CC[C@]2(C)C(=O)CCC32)C1 (stereo not given in full)	0.975

Tell us which normalized growth value is on record for CC1=C(/C=C/C(C)=C/C=C/C(C)=C/C(=O)O)C(C)(C)CCC1
0.994

Tell us which normalized growth value is on record for C[C@](N)(Cc1ccc(O)c(O)c1)C(=O)O
0.96

Tell us which normalized growth value is on record for O=C(O)c1ccc2c(c1)OCO2
1.01

Tell us which normalized growth value is on record for NC(=O)c1cc[n+](CC2=C(C(=O)O)N3C(=O)C(NC(=O)C(c4ccccc4)S(=O)(=O)[O-])C3SC2)cc1 (stereo not given)
0.993

Tell us which normalized growth value is on record for CC12CCC3C(CC=C4CC(O)CCC43C)C1CCC2=O (stereo not given)
0.876

Tell us which normalized growth value is on record for COC(=O)[C@H]1[C@H]2C[C@@H]3c4[nH]c5cc(OC)ccc5c4CCN3C[C@H]2C[C@@H](OC(=O)c2cc(OC)c(OC)c(OC)c2)[C@@H]1OC
0.965

Tell us which normalized growth value is on record for CC(=O)O[C@H]1CC[C@@]2(C)C(=CCC3C2CC[C@@]2(C)C3CC[C@@H]2C(C)CCCC(C)C)C1 (stereo not given in full)
0.997

Tell us which normalized growth value is on record for Nc1nccs1
1

Tell us which normalized growth value is on record for CC(Cc1ccc(O)c(O)c1)(NN)C(=O)O (stereo not given)
0.988

---

In this section we review reported normalized growth values for a set of compounds.
Assay: chemical genetic growth profiling, strain panel (AID 1159580);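 note: tested at 20 µM; growth read once vehicle control cultures reached saturation at 30 °C; 1 = growth at the plate median or of vehicle wells; lower values mean less growth of the strain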
Details: S. cerevisiae deletion strains, growth OD, locus YMR223W, strain ubp8, stronger effect = lower value
Out of some 5,500 compounds screened, about 2,000 (36%) were called active. Another 18% or so got no clear call; they are omitted. The list shows a part of the results.
Reply briefly: the number, and no unit.

These solved cases illustrate the format of a correct answer.
NC(=O)c1cc[n+](CC2=C(C(=O)O)N3C(=O)C(NC(=O)C(c4ccccc4)S(=O)(=O)[O-])C3SC2)cc1 (configuration not stated)	0.974
CC1=C(/C=C/C(C)=C/C=C/C(C)=C\C(=O)O)C(C)(C)CCC1	0.976
CCn1cc(C(=O)O)c(=O)c2cnc(N3CCCC3)nc21	0.98

Tell us which normalized growth value is on record for CC[C@@]1(C2O[C@@H](C3O[C@@](O)(CC)[C@H](C)C[C@@H]3C)C[C@@H]2C)CC[C@H]([C@]2(C)CCC3(C[C@H](O)[C@@H](C)[C@@H]([C@H](C)[C@@H](OC)[C@H](C)C(=O)O)O3)O2)O1 (some centres not stated)
0.983

Tell us which normalized growth value is on record for CCOP(=S)(OCC)SCCSCC
0.992

Tell us which normalized growth value is on record for COc1cc(/C=C/C(=O)O)ccc1O
1.01

Tell us which normalized growth value is on record for C=CCN1CC[C@]23c4c5ccc(O)c4OC2C(=O)CC[C@@]3(O)[C@H]1C5 (some centres not stated)
0.99

Tell us which normalized growth value is on record for O=c1ccn([C@@H]2O[C@H](COP(=O)(O)OP(=O)(O)OP(=O)(O)O)[C@@H](O)[C@H]2O)c(=O)[nH]1
0.977

Tell us which normalized growth value is on record for CO[C@@H]1C[C@@H](C[C@H]2CC[C@H](C)[C@H]([C@@H](C)C(=O)O)O2)O[C@]2(O[C@](C)([C@H]3CC[C@@](C)(C4O[C@@H](C5O[C@@](O)(CO)[C@H](C)C[C@@H]5C)C[C@@H]4C)O3)C[C@H]2C)[C@@H]1C (some centres not stated)
0.994

Tell us which normalized growth value is on record for CC12CCCC(O)(C1)C1CC(C)(C)C1CC2 (configuration not stated)
1.02

Tell us which normalized growth value is on record for c1ccc2[nH]c(-c3cscn3)nc2c1
1.02

Tell us which normalized growth value is on record for CC(=O)N[C@@H]1[C@@H](C(O)[C@H](O)CO)O[C@](O)(C(=O)O)C[C@@H]1O (some centres not stated)
0.975

Tell us which normalized growth value is on record for CCOP(=S)(OCC)SCSCC
1.01

Tell us which normalized growth value is on record for CCCNC(C)C(=O)Nc1ccccc1C (configuration not stated)
0.972

---

Test: chemical genetic growth profiling, strain panel (AID 1159580);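 note: tested at 20 µM; growth read once vehicle control cultures reached saturation at 30 °C; 1 = growth at the plate median or of vehicle wells; lower values mean less growth of the strain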
Settings: S. cerevisiae deletion strains, growth OD, locus YGR252W, strain gcn5, stronger effect = lower value
In all, about 5,500 compounds went through this assay and about 2,000 (36%) were called active. Not shown: some 18% with an inconclusive outcome. Some of the results follow.
In this section we review reported normalized growth values for a set of compounds.
Reply briefly: the number, and no unit.

Cc1ccc(C(C)C)cc2c(C)ccc1-2	1.02

Tell us which normalized growth value is on record for CC(=O)N[C@@H]1[C@@H](C(O)[C@H](O)CO)O[C@](O)(C(=O)O)C[C@@H]1O (stereo partly specified)
0.958

Tell us which normalized growth value is on record for COc1ccccc1-c1cc(=O)c2c(OC)cccc2o1
0.776

Tell us which normalized growth value is on record for CC[C@@]1(C2O[C@@H](C3O[C@@](O)(CC)[C@H](C)C[C@@H]3C)C[C@@H]2C)CC[C@H]([C@]2(C)CCC3(C[C@H](O)[C@@H](C)[C@@H]([C@H](C)[C@@H](OC)[C@H](C)C(=O)O)O3)O2)O1 (stereo partly specified)
0.976

Tell us which normalized growth value is on record for CC12CCCC(O)(C1)C1CC(C)(C)C1CC2 (stereo unspecified)
1.09

Tell us which normalized growth value is on record for CS(=O)(=O)OCCCCOS(C)(=O)=O
0.861

Tell us which normalized growth value is on record for C=CCc1cc(OC)c2c(c1OC)OCO2
0.969
